Target: Poly [ADP-ribose] polymerase 1 (Homo sapiens)
Sequence (P09874 whole entry): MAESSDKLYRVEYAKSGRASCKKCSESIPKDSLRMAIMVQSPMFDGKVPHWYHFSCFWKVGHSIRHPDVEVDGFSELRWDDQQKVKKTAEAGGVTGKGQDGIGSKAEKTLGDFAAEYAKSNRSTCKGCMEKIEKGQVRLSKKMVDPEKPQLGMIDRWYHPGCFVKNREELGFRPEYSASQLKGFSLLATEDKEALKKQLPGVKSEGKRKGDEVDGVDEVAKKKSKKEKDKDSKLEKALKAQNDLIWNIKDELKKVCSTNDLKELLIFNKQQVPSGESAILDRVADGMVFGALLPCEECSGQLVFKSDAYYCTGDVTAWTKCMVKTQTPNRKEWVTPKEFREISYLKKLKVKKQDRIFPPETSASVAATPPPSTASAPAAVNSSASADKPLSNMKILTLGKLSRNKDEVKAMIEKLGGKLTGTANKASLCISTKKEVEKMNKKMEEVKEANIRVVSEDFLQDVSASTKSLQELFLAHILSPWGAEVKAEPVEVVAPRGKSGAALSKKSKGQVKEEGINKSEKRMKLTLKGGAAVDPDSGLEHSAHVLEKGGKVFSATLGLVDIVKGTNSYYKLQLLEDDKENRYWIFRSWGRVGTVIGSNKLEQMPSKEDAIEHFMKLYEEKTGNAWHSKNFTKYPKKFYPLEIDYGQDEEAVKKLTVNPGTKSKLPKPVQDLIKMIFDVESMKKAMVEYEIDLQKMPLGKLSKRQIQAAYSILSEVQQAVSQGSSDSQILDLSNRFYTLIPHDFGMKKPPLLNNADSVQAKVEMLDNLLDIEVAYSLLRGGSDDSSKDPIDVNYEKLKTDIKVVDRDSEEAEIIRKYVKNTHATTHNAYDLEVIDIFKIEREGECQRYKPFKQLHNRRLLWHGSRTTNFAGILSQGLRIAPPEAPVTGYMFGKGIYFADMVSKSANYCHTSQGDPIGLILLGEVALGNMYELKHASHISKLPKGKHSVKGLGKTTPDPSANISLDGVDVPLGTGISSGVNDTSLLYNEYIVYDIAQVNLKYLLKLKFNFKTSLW
Assay: Inhibition of PARP1 (unknown origin) incubated for 45 mins in presence of biotinylated-NAD+ by microplate reader analysis
Here the recorded IC50 is given for each entry.
Give the value, in units of nM, as a plain number.

Task: Give recorded IC50. CC[C@@H]1C(=O)N(C)c2cnc(Nc3ccc(-c4nc5c(C(N)=O)cccc5[nH]4)cc3)nc2N1C1CCCC1
Output: 43

Task: For the compound CCOc1cc(-c2nc3c(C(N)=O)cccc3[nH]2)ccc1Nc1ncc2c(n1)N(C1CCCC1)[C@H](CC)C(=O)N2C , report IC50.
Output: 306

Task: Report IC50 for COc1cc(-c2nc3c(C(N)=O)cccc3[nH]2)ccc1N(C)c1ncc2c(n1)N(C1CCCC1)[C@H](C)C(=O)N2C
Output: 25

Task: Identify the reported IC50 for the following entry. CC[C@@H]1C(=O)N(C)c2cnc(Nc3ccc(-c4nc5c(C(N)=O)cccc5[nH]4)cc3OC(C)C)nc2N1C1CCCC1
Output: 2050

Task: Dear colleague, please send me the reported IC50 for CC[C@@H]1C(=O)N(C)c2cnc(Nc3ccc(-c4nc5c(C(N)=O)cccc5[nH]4)cc3OC3CCCC3)nc2N1C1CCCC1 when you can.
Output: 1820

Task: Specify IC50 for CC[C@@H]1C(=O)N(C)c2cnc(N(C)c3ccc(-c4nc5c(C(N)=O)cccc5[nH]4)cc3OC)nc2N1C1CCCC1 and stop.
Output: 13

Task: Given CC[C@@H]1C(=O)N(C)c2cnc(Nc3ccc(Cc4nc5c(C(N)=O)cccc5[nH]4)cc3OC)nc2N1C1CCCC1 , respond with its IC50.
Output: 355

Task: Supply IC50 value. Item: CC[C@@H]1C(=O)N(C)c2cnc(Nc3ccc(CC(=O)NCc4nc5c(C(N)=O)cccc5[nH]4)cc3OC)nc2N1C1CCCC1
Output: 498

Task: Given the compound CC[C@@H]1C(=O)N(C)c2cnc(Nc3ccc(-c4nc5c(C(N)=O)cccc5[nH]4)cc3OC)nc2N1C1CCCC1 , write its reported IC50.
Output: 150

Task: Return IC50 for the following compound: CC[C@@H]1C(=O)N(C)c2cnc(Nc3ccc(-c4nc5c(C(N)=O)cccc5[nH]4)cc3OC)nc2N1Cc1ccc(OC)cc1OC
Output: 570

Task: Consider the compound CC[C@@H]1C(=O)N(C)c2cnc(Nc3ccc(-c4nc5c(C(N)=O)cccc5[nH]4)cc3OC)nc2N1Cc1cccc(C(F)(F)F)c1 . State its measured IC50.
Output: 1760

====

Tested on: CFPAC-1
Experiment: Antiproliferative activity against human CFPAC-1 cells assessed as reduction in cell viability after 4 days by MTT assay
Assay type: functional, cell-based
Conditions: CFPAC-1, 96 h
measured-quantity: IC50 (µM)
// return numeric value only (unit: µM, not printed)

Task: Report value only: IC50, CFPAC-1, O=C(c1cc(Cc2n[nH]c(=O)c3ccccc23)ccc1F)N1CCN(C(=O)C2CC2)CC1
Output: 13.7

====

Target: Bromodomain testis-specific protein (Homo sapiens, UniProt Q58F21)
Assay: Inhibition of recombinant BRDT BD2 (unknown origin) incubated for 120 mins by TR-FRET assay
measured-quantity: pIC50
In textbook form, pIC50 equals minus log to base ten of the concentration in mol/L.

Task: For the compound CC[C@@H]1C(=O)N(C)c2cnc(N(C)c3ccc(-c4nc5c(C(N)=O)cccc5[nH]4)cc3OC)nc2N1C1CCCC1 , give its measured pIC50 value.
Output: 5.85

====

Test system: CFPAC-1
Assay: Antiproliferative activity against human CFPAC-1 cells assessed as reduction in cell viability after 4 days by MTT assay
Type: functional, cell-based
Details: CFPAC-1, 96 h, read-out: IC50
measured-quantity: IC50 (nM)
Give the value, in units of nM, as a plain number.

| chemical-structure | uom | reading |
| --- | --- | --- |
| Cc1sc2c(c1C)C(c1ccc(Cl)cc1)=N[C@@H](CC(=O)OC(C)(C)C)c1nnc(C)n1-2 | nM | 1560 |

Task: State the measured IC50 (CFPAC-1) of CC[C@@H]1C(=O)N(C)c2cnc(N(C)c3ccc(-c4nc5c(C(N)=O)cccc5[nH]4)cc3OC)nc2N1C1CCCC1
Output: 1160

====

Target: Bromodomain-containing protein 3 (Homo sapiens, UniProt Q15059)
Sequence (Q15059 whole entry): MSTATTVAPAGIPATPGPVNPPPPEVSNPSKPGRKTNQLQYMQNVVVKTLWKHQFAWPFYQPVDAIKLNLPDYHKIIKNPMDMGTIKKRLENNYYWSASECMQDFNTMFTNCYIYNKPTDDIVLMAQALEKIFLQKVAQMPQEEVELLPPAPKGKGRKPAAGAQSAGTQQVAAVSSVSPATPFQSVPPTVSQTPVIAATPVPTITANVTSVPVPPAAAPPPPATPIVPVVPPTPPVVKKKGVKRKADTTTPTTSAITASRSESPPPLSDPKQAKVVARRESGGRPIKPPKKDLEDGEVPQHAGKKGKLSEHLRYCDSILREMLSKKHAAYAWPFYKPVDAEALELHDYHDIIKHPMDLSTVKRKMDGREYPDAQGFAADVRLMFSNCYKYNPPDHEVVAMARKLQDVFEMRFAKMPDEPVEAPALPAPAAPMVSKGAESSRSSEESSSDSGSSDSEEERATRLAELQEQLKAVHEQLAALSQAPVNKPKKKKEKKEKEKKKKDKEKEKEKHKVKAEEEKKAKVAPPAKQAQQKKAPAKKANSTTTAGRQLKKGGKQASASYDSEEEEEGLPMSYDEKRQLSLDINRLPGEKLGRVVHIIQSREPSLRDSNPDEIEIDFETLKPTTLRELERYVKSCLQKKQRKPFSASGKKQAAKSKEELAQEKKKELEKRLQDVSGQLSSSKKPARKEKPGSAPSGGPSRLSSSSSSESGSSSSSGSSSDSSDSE
Assay: Inhibition of recombinant BRD3 BD2 (unknown origin) incubated for 120 mins by TR-FRET assay
measured-quantity: pIC50
Kindly note that pIC50 refers to -log10 of the concentration in mol/L and answer with the value alone.

Task: Give a short answer stating reported pIC50 for CC[C@@H]1C(=O)N(C)c2cnc(N(C)c3ccc(-c4nc5c(C(N)=O)cccc5[nH]4)cc3OC)nc2N1C1CCCC1 .
Output: 6.91

====

Molecular target: Bromodomain-containing protein 4 (Homo sapiens, UniProt O60885)
Test: Inhibition of recombinant BRD4 (unknown origin) at 0.5 uM incubated for 120 mins by TR-FRET assay relative to control
Recorded inhibition for the following molecules
Answer with a number only, understood to be in %.

| molecule | inhibition / % |
| --- | --- |
| CC[C@@H]1C(=O)N(C)c2cnc(Nc3ccc(-c4nc5c(C(N)=O)cccc5[nH]4)cc3OC)nc2N1Cc1cccc(C(F)(F)F)c1 | 17 |
| CC[C@@H]1C(=O)N(C)c2cnc(Nc3ccc(C(C)c4nc5c(C(N)=O)cccc5[nH]4)cc3OC)nc2N1C1CCCC1 (stereo partly drawn) | 74 |
| CCOc1cc(-c2nc3c(C(N)=O)cccc3[nH]2)ccc1Nc1ncc2c(n1)N(C1CCCC1)[C@H](CC)C(=O)N2C | 86 |

Now let's try a different one.
Task: Tell me inhibition reported for CC[C@@H]1C(=O)N(C)c2cnc(Nc3ccc(-c4nc5c(C(N)=O)cccc5[nH]4)cc3OC3CCCC3)nc2N1C1CCCC1
Output: 47

====

Molecular target: Bromodomain-containing protein 3 (Homo sapiens, UniProt Q15059)
Test: Inhibition of recombinant BRD3 BD1 (unknown origin) incubated for 120 mins by TR-FRET assay
measured-quantity: pIC50
Interpret pIC50 as the negative base-10 log of the concentration measured in mol/L.

Task: # return recorded pIC50 for input CC[C@@H]1C(=O)N(C)c2cnc(N(C)c3ccc(-c4nc5c(C(N)=O)cccc5[nH]4)cc3OC)nc2N1C1CCCC1
Output: 6.78

====

Target: Bromodomain-containing protein 4 (Homo sapiens)
Experiment: Inhibition of recombinant BRD4 (unknown origin) incubated for 120 mins by TR-FRET assay
measured-quantity: pIC50
As a rule, pIC50 stands for the negative log10 of the concentration, concentration in M.

Reference set (6 entries):
| chemical-structure | pIC50 |
| --- | --- |
| CC[C@@H]1C(=O)N(C)c2cnc(Nc3ccc(Cc4nc5c(C(N)=O)cccc5[nH]4)cc3OC)nc2N1C1CCCC1 | 6.73 |
| CC[C@@H]1C(=O)N(C)c2cnc(Nc3ccc(CC(=O)NCc4nc5c(C(N)=O)cccc5[nH]4)cc3OC)nc2N1C1CCCC1 | 6.56 |
| COc1cc(-c2nc3c(C(N)=O)cccc3[nH]2)ccc1N(C)c1ncc2c(n1)N(C1CCCC1)[C@H](C)C(=O)N2C | 6.69 |
| CC[C@@H]1C(=O)N(C)c2cnc(Nc3ccc(-c4nc5c(C(N)=O)cccc5[nH]4)cc3OC)nc2N1C1CCCC1 | 6.63 |
| CC[C@@H]1C(=O)N(C)c2cnc(Nc3ccc(-c4nc5c(C(N)=O)cccc5[nH]4)cc3)nc2N1C1CCCC1 | 6.07 |
| CC[C@@H]1C(=O)N(C)c2cnc(Nc3ccc(C(=O)NCc4nc5c(C(N)=O)cccc5[nH]4)cc3OC)nc2N1C1CCCC1 | 6.43 |

Task: Determine from records and report pIC50 for CC[C@@H]1C(=O)N(C)c2cnc(N(C)c3ccc(-c4nc5c(C(N)=O)cccc5[nH]4)cc3OC)nc2N1C1CCCC1
Output: 7.00

Task: Please look at this molecule and report its pIC50: COc1cc(-c2nc3c(C(N)=O)cccc3[nH]2)ccc1Nc1ncc2c(n1)N(C1CCCC1)[C@H](C)C(=O)N2C
Output: 6.60

Task: Provide one value: measured pIC50 of CC[C@@H]1C(=O)N(C)c2cnc(Nc3cccc(-c4nc5c(C(N)=O)cccc5[nH]4)c3)nc2N1C1CCCC1
Output: 6.16

====

Molecular target: Bromodomain-containing protein 2 (Homo sapiens, UniProt P25440)
Sequence (P25440 whole entry): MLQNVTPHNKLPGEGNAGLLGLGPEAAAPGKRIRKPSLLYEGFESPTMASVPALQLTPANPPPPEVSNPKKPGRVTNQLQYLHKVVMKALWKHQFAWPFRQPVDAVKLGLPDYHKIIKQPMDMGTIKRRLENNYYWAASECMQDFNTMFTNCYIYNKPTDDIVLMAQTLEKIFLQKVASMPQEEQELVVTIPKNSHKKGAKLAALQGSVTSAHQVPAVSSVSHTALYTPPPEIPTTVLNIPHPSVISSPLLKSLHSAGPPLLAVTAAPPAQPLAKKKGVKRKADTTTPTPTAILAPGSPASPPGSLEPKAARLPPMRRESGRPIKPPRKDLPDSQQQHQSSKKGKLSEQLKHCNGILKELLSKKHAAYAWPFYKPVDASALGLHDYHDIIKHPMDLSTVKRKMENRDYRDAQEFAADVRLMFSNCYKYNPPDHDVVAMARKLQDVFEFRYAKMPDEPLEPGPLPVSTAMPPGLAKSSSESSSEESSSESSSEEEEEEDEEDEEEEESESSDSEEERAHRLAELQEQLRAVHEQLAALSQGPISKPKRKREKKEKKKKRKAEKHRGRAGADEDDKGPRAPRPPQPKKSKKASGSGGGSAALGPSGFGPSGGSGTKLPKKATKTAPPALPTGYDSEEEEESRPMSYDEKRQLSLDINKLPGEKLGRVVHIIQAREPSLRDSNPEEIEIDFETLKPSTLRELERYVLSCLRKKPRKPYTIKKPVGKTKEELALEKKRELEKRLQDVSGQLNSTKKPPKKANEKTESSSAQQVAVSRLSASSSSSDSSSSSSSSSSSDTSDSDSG
Assay: Inhibition of recombinant BRD2 BD2 (unknown origin) incubated for 120 mins by TR-FRET assay
measured-quantity: IC50 (nM)
Value expressed in nM; do not type the unit.

Task: Return IC50 for the following compound: CC[C@@H]1C(=O)N(C)c2cnc(N(C)c3ccc(-c4nc5c(C(N)=O)cccc5[nH]4)cc3OC)nc2N1C1CCCC1
Output: 168

====

Target: Bromodomain-containing protein 4 (Homo sapiens)
Experiment: Inhibition of recombinant BRD4 BD2 (unknown origin) incubated for 120 mins by TR-FRET assay
measured-quantity: pIC50
The meaning of pIC50 here: minus log10 of the concentration in molar units.

Task: Read the entry CC[C@@H]1C(=O)N(C)c2cnc(N(C)c3ccc(-c4nc5c(C(N)=O)cccc5[nH]4)cc3OC)nc2N1C1CCCC1 and write its reported pIC50.
Output: 6.80
